test system: OXE receptor (Felis catus, UniProt A0ABI7XKF2)
Sequence (A0ABI7XKF2 1-379): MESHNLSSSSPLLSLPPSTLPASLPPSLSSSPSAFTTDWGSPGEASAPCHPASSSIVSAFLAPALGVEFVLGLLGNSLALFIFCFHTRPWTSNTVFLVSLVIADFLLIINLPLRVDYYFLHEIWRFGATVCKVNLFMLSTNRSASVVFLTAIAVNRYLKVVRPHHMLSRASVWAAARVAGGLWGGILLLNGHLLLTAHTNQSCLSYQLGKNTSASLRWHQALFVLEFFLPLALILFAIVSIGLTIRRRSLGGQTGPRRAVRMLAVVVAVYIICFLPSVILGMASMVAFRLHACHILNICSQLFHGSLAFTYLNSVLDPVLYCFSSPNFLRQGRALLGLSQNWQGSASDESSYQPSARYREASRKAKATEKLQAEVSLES
assay notes: actin polymerization
measurement type: pEC50
One number for each entry, as −log10 of the molar value.

Query the reported pEC50 for OXE receptor (Felis catus, UniProt A0ABI7XKF2); item: CCCCC/C=C\C/C=C\C/C=C\C=C\C(=O)CCCC(=O)O [5-oxo-ETE]
9.14
